Where these numbers come from: paper PMC3169429

molecular target: bacteriophage T4 clamp loader, gp44/62 (Enterobacteria phage T4, UniProt P04526); test: ATPase inhibition assay, wild-type gp44/62; format: biochemical; conditions: Ki (γ-complex) / Ki (gp44/62)
Sequence (P04526 whole entry): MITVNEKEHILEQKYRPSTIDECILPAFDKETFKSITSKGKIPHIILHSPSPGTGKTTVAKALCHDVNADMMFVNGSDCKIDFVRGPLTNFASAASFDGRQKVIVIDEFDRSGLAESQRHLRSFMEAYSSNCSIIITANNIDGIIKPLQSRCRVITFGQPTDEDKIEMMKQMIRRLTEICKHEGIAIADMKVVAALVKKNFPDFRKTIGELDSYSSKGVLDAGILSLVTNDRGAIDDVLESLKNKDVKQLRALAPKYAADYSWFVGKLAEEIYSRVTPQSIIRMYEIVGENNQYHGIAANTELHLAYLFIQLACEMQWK
Sequence (P04527 whole entry partner): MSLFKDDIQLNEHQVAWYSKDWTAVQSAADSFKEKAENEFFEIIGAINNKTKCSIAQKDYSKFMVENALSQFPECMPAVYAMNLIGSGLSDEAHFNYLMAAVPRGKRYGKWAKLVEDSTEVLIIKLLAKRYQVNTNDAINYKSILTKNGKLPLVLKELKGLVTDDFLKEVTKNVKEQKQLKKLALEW
compounds and their reported Selectivity Factor
# output: bare number, no unit

// below: answered compounds
# compound, parameter, assay-result
rows = [
    ("CCc1ccc2c(ccn2[C@H]2C[C@H](O)[C@@H](COP(=O)(O)OP(=O)(O)OP(=O)(O)O)O2)c1 [d5-EtITP]", "Selectivity Factor", 0.11),
    ("O=P(O)(O)OP(=O)(O)OP(=O)(O)OC[C@H]1O[C@@H](n2ccc3cc(-c4ccccc4)ccc32)C[C@@H]1O [d5-PhITP]", "Selectivity Factor", 0.18),
    ("O=P(O)(O)OP(=O)(O)OP(=O)(O)OC[C@H]1O[C@@H](n2ccc3cc(C4=CCCCC4)ccc32)C[C@@H]1O [d5-CEITP]", "Selectivity Factor", 1.18),
]

Continue with the next compound.
Measured Selectivity Factor of O=[N+]([O-])c1cccc2c1ccn2[C@H]1C[C@H](O)[C@@H](COP(=O)(O)OP(=O)(O)OP(=O)(O)O)O1 [d4-NITP] : 0.32
